target-under-test: DOR (Homo sapiens, UniProt P41143)
Sequence (P41143 whole entry): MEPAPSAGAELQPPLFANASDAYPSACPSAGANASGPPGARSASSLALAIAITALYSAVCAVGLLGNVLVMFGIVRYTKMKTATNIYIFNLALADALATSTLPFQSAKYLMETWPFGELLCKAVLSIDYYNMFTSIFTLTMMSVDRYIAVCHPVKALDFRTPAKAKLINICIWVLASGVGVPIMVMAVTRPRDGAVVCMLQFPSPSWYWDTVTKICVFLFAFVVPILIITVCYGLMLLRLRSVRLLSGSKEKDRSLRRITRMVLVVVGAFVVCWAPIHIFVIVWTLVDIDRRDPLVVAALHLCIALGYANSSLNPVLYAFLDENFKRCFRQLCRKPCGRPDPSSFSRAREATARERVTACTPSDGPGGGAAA
test-details: [35S]GTPγS binding assay, CHO-hDOR membranes
test-conditions: [35S]GTPγS, CHO human DOR membranes
pEC50: −log10 of the molar value.
Would you please tag the item class 1 when its pEC50 is 8 or above, and class 0 when it is below?

>  <compound>
CO[C@@]12CC[C@H](NCCCC(=O)O)[C@@H]3Oc4c(O)ccc5c4[C@@]31CCN(C)[C@@H]2C5 [Compound 21a]

>  <cat>
class 0

$$$$
>  <compound>
CO[C@@]12CC[C@@H](N[C@@H](Cc3c[nH]c4ccccc34)C(=O)O)[C@@H]3Oc4c(O)ccc5c4[C@@]31CCN(C)[C@@H]2C5 [Compound 10b]

>  <cat>
class 1

$$$$
>  <compound>
CO[C@@]12CC[C@H](N[C@H](C(=O)N[C@@H](Cc3ccc(O)cc3)C(=O)O)C(C)C)[C@@H]3Oc4c(O)ccc5c4[C@@]31CCN(C)[C@@H]2C5 [Compound 22a]

>  <cat>
class 1

$$$$
>  <compound>
CO[C@@]12CC[C@@H](N[C@@H](CC(N)=O)C(=O)O)[C@@H]3Oc4c(O)ccc5c4[C@@]31CCN(C)[C@@H]2C5 [Compound 11b]

>  <cat>
class 1

$$$$
>  <compound>
CO[C@@]12CC[C@@H](N[C@@H](Cc3ccccc3)C(=O)O)[C@@H]3Oc4c(O)ccc5c4[C@@]31CCN(C)[C@@H]2C5 [Compound 4b]

>  <cat>
class 1

$$$$
>  <compound>
CO[C@@]12CC[C@H](N[C@@H](Cc3c[nH]c4ccccc34)C(=O)O)[C@@H]3Oc4c(O)ccc5c4[C@@]31CCN(C)[C@@H]2C5 [Compound 10a]

>  <cat>
class 1

$$$$
>  <compound>
CO[C@@]12CC[C@@H](NC(C)C(=O)O)[C@@H]3Oc4c(O)ccc5c4[C@@]31CCN(C)[C@@H]2C5 (stereo in doubt) [Compound 15b]

>  <cat>
class 1

$$$$
>  <compound>
CC[C@H](N[C@@H]1CC[C@@]2(OC)[C@H]3Cc4ccc(O)c5c4[C@@]2(CCN3C)[C@H]1O5)C(=O)O [Compound 19b]

>  <cat>
class 1

$$$$
>  <compound>
CO[C@@]12CC[C@@H](N[C@H](C(=O)O)C3CCCCC3)[C@@H]3Oc4c(O)ccc5c4[C@@]31CCN(C)[C@@H]2C5 [Compound 18b]

>  <cat>
class 1

$$$$
>  <compound>
CO[C@@]12CC[C@H](N[C@H](C(=O)O)C(C)C)[C@@H]3Oc4c(O)ccc5c4[C@@]31CCN(C)[C@@H]2C5 [Compound 7a]

>  <cat>
class 0

$$$$
>  <compound>
CO[C@@]12CC[C@H](NCCC(=O)O)[C@@H]3Oc4c(O)ccc5c4[C@@]31CCN(C)[C@@H]2C5 [Compound 20a]

>  <cat>
class 0

$$$$
>  <compound>
CO[C@@]12CC[C@@H](N[C@@H](C)C(=O)O)[C@@H]3Oc4c(O)ccc5c4[C@@]31CCN(C)[C@@H]2C5 [Compound 3b]

>  <cat>
class 1

$$$$
>  <compound>
CO[C@@]12CC[C@@H](N[C@@H](CCC(N)=O)C(=O)O)[C@@H]3Oc4c(O)ccc5c4[C@@]31CCN(C)[C@@H]2C5.Cl.Cl [Compound 12b]

>  <cat>
class 1

$$$$
>  <compound>
CO[C@@]12CC[C@H](N[C@H](C(=O)O)C3CCCCC3)[C@@H]3Oc4c(O)ccc5c4[C@@]31CCN(C)[C@@H]2C5 [Compound 18a]

>  <cat>
class 0

$$$$
>  <compound>
CO[C@@]12CC[C@H](N[C@@H](Cc3ccc(O)cc3)C(=O)O)[C@@H]3Oc4c(O)ccc5c4[C@@]31CCN(C)[C@@H]2C5.Cl.Cl [Compound 9a]

>  <cat>
class 1

$$$$
>  <compound>
CO[C@@]12CC[C@H](NC(C)C(=O)O)[C@@H]3Oc4c(O)ccc5c4[C@@]31CCN(C)[C@@H]2C5 (stereo in doubt) [Compound 15a]

>  <cat>
class 0

$$$$
